- TEST_TARGET: T1, human BCMA protein (human, UniProt Q02223 1-54, limits assumed)
- T1 sequence: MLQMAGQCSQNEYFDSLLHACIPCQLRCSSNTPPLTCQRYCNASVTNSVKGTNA
- TEST_DETAILS: affinity to human BCMA protein, method not stated
VALUE_TYPE: Kd (nM)
Give your result in nM as a bare value.

Past entries and their recorded results:
[[record]]
binder = "BCMA targeting trispecific protein 01B05 (other, not shown: large carriers; small tags and cut ends, trispecific) VHH: EVQLVESGGGLVQPGRSLTLSCAASTNITSISPMGWYRQAPGKQRELVAAIHGFETLYADSVKGRFTISRDNAKNSIYLQMNSLRPEDTALYYCNKVPWGDYHPGNVYWGQGTQVTVSS"
result_unit = "nM"
observed_result = 6.52

[[record]]
binder = "BCMA targeting trispecific protein 01H11 (other, not shown: large carriers; small tags and cut ends, trispecific) VHH: EVQLVESGGGLVQPGRSLTLSCVASTNIFSTSPMGWYRQAPGKQRELVAAIHGFSTLYADSVKGRFTISRDNAKNSIYLQMNSLRPEDTALYYCNKVPWGDYHPGNVYWGQGTQVTVSS"
result_unit = "nM"
observed_result = 7.06

[[record]]
binder = "BCMA targeting trispecific protein 01A09 (other, not shown: large carriers; small tags and cut ends, trispecific) VHH: EVQLVESGGGLVQPGRSLTLSCAASTNIFSITPMGWYRQAPGKQRELVAAIHGRSTLYADSVKGRFTISRDNAKNSIYLQMNSLRPEDTALYYCNKVPWGSYHPRNVYWGQGTQVTVSS"
result_unit = "nM"
observed_result = 23.9

[[record]]
binder = "BCMA targeting trispecific protein 02H01 (other, not shown: large carriers; small tags and cut ends, trispecific) VHH: EVQLVESGGGLVQPGRSLTLSCAASTNIFSKSPMGWYRQAPGKQRELVAAIHGSSTLYADSVKGRFTISRDNAKNSIYLQMNSLRPEDTALYYCNKVPWGDYHPRNVYWGQGTQVTVSS"
result_unit = "nM"
observed_result = 35.6

[[record]]
binder = "BCMA targeting trispecific protein 01G01 (other, trispecific; not shown: the C-terminal 6xHis tag follows those missing domains and is left out) VHH: EVQLVESGGGLVQPGRSLTLSCAASTNIVSISPMGWYRQAPGKQRELVAAIHGDSTLYADSVKGRFTISRDNAKNSIYLQMNSLRPEDTALYYCNKVPWGDYHPRRVYWGQGTQVTVSS"
result_unit = "nM"
observed_result = 14.6

[[record]]
binder = "BCMA targeting trispecific protein 01B02 (other, trispecific; not shown: anti-albumin domain, anti-CD3 domain and the linkers of the trispecific; the C-terminal His6 that follows them is left out) VHH: EVQLVESGGGLVQPGRSLTLSCAASTNITSISPMGWYRQAPGKQRELVAAISGFSTLYADSVKGRFTISRDNAKNSIYLQMNSLRPEDTALYYCNEVPWGDYHPRNVYWGQGTQVTVSS"
result_unit = "nM"
observed_result = 18.8


Tell me its Kd given BCMA targeting trispecific protein 01F04 (other, trispecific; not shown: the C-terminal His6 follows those missing domains and is left out) VHH: EVQLVESGGGLVQPGRSLTLSCAASTNIDSISPMGWYRQAPGKQRELVAAIHGFQTLYADSVKGRFTISRDNAKNSIYLQMNSLRPEDTALYYCNKVPWGDYHPGNVYWGQGTQVTVSS as the entry.
6.55

Look up and report measured Kd for this entry: BCMA targeting trispecific protein 01E06 (other, not shown: large carriers; small tags and cut ends, trispecific) VHH: EVQLVESGGGLVQPGRSLTLSCAASTNIFSLSPMGWYRQAPGKQRELVAAIHGDSTLYADSVKGRFTISRDNAKNSIYLQMNSLRPEDTALYYCNKVPWGDYHPRNVYWGQGTQVTVSS
8.91

Origin of measurements: patent US20240327534A1
